# PROCEDURE DETAILS: Toxicity liver stage against HepG2, at 10uM
# Format: cell-based
# Set-up: test concentration 10 uM, cell line HepG2-A16-CD81EGFP
# RUN PARAMETERS: human, HepG2-A16-CD81EGFP cells; read-out: INHIBITION
PROPERTY LABEL: cytotoxicity at 10 µM (%)
Reply numerically in %, unit not repeated.

So for CCc1n[nH]c(C2CN(C(=O)c3ccc4c(c3)CCC4)CCO2)n1 (stereo not given) , the logged cytotoxicity at 10 µM turned out to be -13.1

Entry `N#Cc1ccc(N2CCN(c3ncccn3)CC2)c(C(F)(F)F)c1` ; cytotoxicity at 10 µM = 36.3

For `COCc1cncc2c1CCN(C(=O)c1ccc(C)o1)C2` the compound record lists cytotoxicity at 10 µM as 0.388

Briefly, cytotoxicity at 10 µM measured for COCCNC(=O)N1CCN(C(C)C(=O)NC2CCCC2)CC1 (stereo not given) : 1.16

So for O=C(Nc1ccc(-c2nnc[nH]2)cc1)C1CCN1Cc1ccccc1 (stereo not given) , the logged cytotoxicity at 10 µM turned out to be 9.73

Kindly note the recorded cytotoxicity at 10 µM for O=C(O)C(c1ccc2[nH]ccc2c1)N1CCOCC1 (stereo not given) , which is 13.1

The reported value for COc1cccc(C(=O)C2CCCN(c3nccc(N)n3)C2)c1 (stereo not given) in terms of cytotoxicity at 10 µM is -1.82

Record `CN(CCC(F)(F)F)c1nc2ccccc2c(=O)[nH]1` , field cytotoxicity at 10 µM: -5.11

Data point: `O=C1Nc2ccccc2NC12CCN(c1cccc(C(F)(F)F)n1)CC2` ; cytotoxicity at 10 µM = 2.31

Looking up `CN(CC(C)(CO)CO)C(=O)Nc1cc(F)cc(F)c1` , I found its cytotoxicity at 10 µM recorded as 0.669

Entry `CCc1c(NCc2ccncc2)cnn1CC(C)C` , cytotoxicity at 10 µM reported as 7.81

// sample `Cc1noc(C)c1CCC(=O)NCCc1cccs1` , its cytotoxicity at 10 µM was -3.11

Reported cytotoxicity at 10 µM ( `c1ccc2sc(N3CCCN(c4ncnc5c4CCNC5)CC3)nc2c1` ) = 31.2

Summary for this compound, Cc1occc1C(=O)N1CCCC(c2nncn2C)C1 (stereo not given) : cytotoxicity at 10 µM is -16

compound CCS(=O)(=O)N1Cc2ncn(CC3CC3)c2C(COCC2CC2)C1 (stereo not given) , cytotoxicity at 10 µM observed: 0.822

For reference, reported cytotoxicity at 10 µM for CCC(CNC(=O)c1ccc(F)cc1F)N1CCc2ccccc2C1 (stereo not given) stands at 10.9

The compound identified as CCOc1nnc(CN2CCCC(c3nc4ccccc4[nH]3)C2)s1 (stereo not given) registered its cytotoxicity at 10 µM at 14.6

// CCN(C(=O)c1ccc2nnc(C3CCN(CCOC)C3)n2c1)C(C)C (stereo not given) : cytotoxicity at 10 µM value = -114

Sure, the documented cytotoxicity at 10 µM for `CC(C)CN(Cc1nc2c(cnn2C)c(=O)[nH]1)C(C)C` is -9.96

// field: cytotoxicity at 10 µM; key: `COC(=O)c1sccc1S(=O)(=O)N1CCC(Oc2cccnn2)CC1` ; value = -4.82

Reported cytotoxicity at 10 µM for CC(C)c1nccc(C2CC(=O)Nc3n[nH]c(C4CCC4)c32)n1 (stereo not given) was -14.6

// recorded cytotoxicity at 10 µM for `COC(=O)CN(C(=O)c1ccc(-n2ccnc2)cc1)C1CC1` : -5

// field: cytotoxicity at 10 µM; key: CN(C)Cc1ccc(C2CCCCN2C(=O)c2ncccc2O)cc1 (stereo not given) ; value = -6.59

CCCN1Cc2ccccc2CC1C(=O)NC (stereo not given) has a reported cytotoxicity at 10 µM of -5.74

Sure, the documented cytotoxicity at 10 µM for `Cc1c(Cl)cc(C(=O)N(CCO)Cc2nccn2C)cc1Cl` is 2.66

Per the record, CC(C)c1nc(C2CCCN(c3nccc(N4CCCC4)n3)C2)no1 (stereo not given) has cytotoxicity at 10 µM of 27.6

Noted for `CN(C)C(=O)N1CCN(Cc2ccc3occc3c2)[C@H]2CS(=O)(=O)C[C@H]21` : its cytotoxicity at 10 µM reads -4.37

In plain terms, `c1ccc(CCn2cc(-c3nc(CN4CCOCC4)no3)nn2)cc1` has a documented cytotoxicity at 10 µM of 1.85

Entry `COc1cc(-c2nc3c([nH]2)CCCNC3=O)ccc1OC(C)C` ; cytotoxicity at 10 µM = 13.3

Value of measured cytotoxicity at 10 µM for the entry CC(C)N1CCCCC1c1cc(CO)[nH]n1 (stereo not given) : 4.61

Input NC(=O)N1CCCC(C(=O)NCCOc2ccc(F)cc2F)C1 (stereo not given) . Output cytotoxicity at 10 µM: 3.26

Entry `CC(C)(C)CN1CC[C@H](c2nnc(Cc3c[nH]c4ccccc34)o2)C1` — recorded cytotoxicity at 10 µM = -3.9

Recorded result, `COCc1cncc2c1CCN(C(=O)c1ccoc1C)C2` , cytotoxicity at 10 µM: -81.1

// sample CC(C)c1n[nH]c(C2CN(C(=O)c3cc(Cl)c[nH]3)CCO2)n1 (stereo not given) , its cytotoxicity at 10 µM was -5.64

cytotoxicity at 10 µM for Cc1cc(C)n(C2CCCN(C(=O)c3cccc4c3OCO4)C2)n1 (stereo not given) is -3.88
